// each record: one item and its IC50 for MMP-9 (Homo sapiens)

| SMILES_REPRESENTATION | RESULT_UNIT | IC50 |
| --- | --- | --- |
| COc1ccccc1-c1ccc(OC2CCN(S(=O)(=O)c3ccc(OC)c(OC)c3C(=O)NO)CC2)cc1 | nM | 300 |
| COc1ccc(OC2CCN(S(=O)(=O)c3ccc(OC)c(OC)c3C(=O)NO)CC2)cc1 | nM | 3 |
| COc1ccc(S(=O)(=O)N2CCC(Sc3ccccc3)CC2)c(C(=O)NO)c1OC | nM | 10 |
| COc1ccc(S(=O)(=O)N2CCC(Oc3ccc(-c4cccc(C(F)(F)F)c4)cc3)CC2)c(C(=O)NO)c1OC | nM | 520 |
